# tested.on: IRAK1 (Homo sapiens)
# Sequence (P51617 whole entry): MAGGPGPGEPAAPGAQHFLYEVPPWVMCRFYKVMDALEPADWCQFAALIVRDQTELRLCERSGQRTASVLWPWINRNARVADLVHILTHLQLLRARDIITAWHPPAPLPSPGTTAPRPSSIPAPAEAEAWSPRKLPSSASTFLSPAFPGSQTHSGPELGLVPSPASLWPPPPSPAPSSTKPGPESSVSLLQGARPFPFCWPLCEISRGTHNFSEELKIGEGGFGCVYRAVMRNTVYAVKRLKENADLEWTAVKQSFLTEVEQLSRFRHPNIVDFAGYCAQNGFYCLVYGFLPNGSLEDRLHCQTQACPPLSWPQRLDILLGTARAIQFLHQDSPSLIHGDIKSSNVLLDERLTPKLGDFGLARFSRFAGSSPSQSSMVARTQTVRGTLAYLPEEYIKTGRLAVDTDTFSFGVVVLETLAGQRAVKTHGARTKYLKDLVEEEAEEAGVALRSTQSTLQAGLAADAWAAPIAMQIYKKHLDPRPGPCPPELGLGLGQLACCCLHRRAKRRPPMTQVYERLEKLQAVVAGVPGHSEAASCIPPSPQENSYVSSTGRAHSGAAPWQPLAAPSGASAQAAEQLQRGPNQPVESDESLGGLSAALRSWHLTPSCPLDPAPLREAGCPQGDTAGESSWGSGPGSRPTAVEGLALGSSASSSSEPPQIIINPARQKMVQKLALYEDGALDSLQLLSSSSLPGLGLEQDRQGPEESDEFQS
# test.method.notes: RBC HotSpot Kinase Assay, IRAK1
# condition.summary: IRAK1 IC50
observed.property: IC50 (nM)

[A] CC(O)(c1cn2c(-c3ccnc(N[C@H]4CNCC[C@@H]4F)n3)cnc2cn1)C(F)(F)F (single isomer, unassigned) [Compound 58]
[B] COc1cc2ncc(-c3cncc(N[C@H]4CNCC[C@@H]4F)n3)n2nc1C(C)(O)C(F)(F)F (single isomer, unassigned) [Compound 80]
// compare: A vs B , metric IC50, want the smaller When you have decided, please share the label of that item.
A
(A: 0.6 nM, B: 1120 nM)

---

# tested.on: FLT3 D835V (Homo sapiens, UniProt P36888, D835V)
# Construct: purchased DiscoverX (KINOMEscan)
# Sequence (P36888 27-993 D835V): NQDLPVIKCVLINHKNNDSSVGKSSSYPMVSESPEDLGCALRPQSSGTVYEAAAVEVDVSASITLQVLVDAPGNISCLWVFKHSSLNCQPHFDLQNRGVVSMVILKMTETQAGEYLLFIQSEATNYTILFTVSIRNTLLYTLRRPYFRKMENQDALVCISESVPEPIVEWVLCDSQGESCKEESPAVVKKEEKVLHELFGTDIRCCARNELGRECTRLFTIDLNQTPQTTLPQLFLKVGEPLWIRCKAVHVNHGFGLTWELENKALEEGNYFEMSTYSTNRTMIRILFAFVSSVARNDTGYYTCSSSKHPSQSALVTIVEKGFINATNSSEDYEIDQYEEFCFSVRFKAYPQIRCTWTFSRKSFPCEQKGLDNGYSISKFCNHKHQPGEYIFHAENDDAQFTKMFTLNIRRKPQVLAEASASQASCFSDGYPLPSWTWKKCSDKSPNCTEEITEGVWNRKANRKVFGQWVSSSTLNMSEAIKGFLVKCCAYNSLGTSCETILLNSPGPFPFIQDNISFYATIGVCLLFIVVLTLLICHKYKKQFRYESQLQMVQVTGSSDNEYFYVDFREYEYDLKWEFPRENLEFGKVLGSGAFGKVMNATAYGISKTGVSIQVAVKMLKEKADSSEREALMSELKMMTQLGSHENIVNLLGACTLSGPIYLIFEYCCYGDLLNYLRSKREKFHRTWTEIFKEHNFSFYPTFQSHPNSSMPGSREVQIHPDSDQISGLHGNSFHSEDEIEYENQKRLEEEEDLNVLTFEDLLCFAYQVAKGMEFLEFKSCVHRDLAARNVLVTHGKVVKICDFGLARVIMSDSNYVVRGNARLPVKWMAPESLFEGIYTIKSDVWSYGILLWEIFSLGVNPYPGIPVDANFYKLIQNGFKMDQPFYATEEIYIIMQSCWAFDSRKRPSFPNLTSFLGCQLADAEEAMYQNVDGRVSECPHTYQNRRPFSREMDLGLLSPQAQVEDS
# test.method.notes: DiscoverX KINOMEscan competition binding, FLT3 D835V
pKd: −log10 of the molar value.
observed.property: pKd

molecule | pKd
COc1cc2ncc(-c3cncc(N[C@H]4CNCC[C@@H]4F)n3)n2nc1C1CC1 | 10.20

[I] COc1cc2ncc(-c3cncc(N[C@H]4CNC[C@@H]4F)n3)n2nc1C1CC1
[II] COc1cc2ncc(-c3ccnc(N[C@@H]4CCCNC4)n3)n2cc1C(C)(C)O
[III] CC(O)(c1cn2c(-c3ccnc(N[C@H]4CNCC[C@@H]4F)n3)cnc2cn1)C(F)(F)F (single isomer, unassigned)
Descending sort on pKd required. Use the labels to give the requested order.
II, I, III
